Test system: OVCAR-3 ovarian
Test: NCI-60 one-dose screen, 48 h (100 = growth as untreated, 0 = no growth, -100 = all killed)
Particulars: 10 µM unless noted
About 83,000 compounds went through this panel and 20% of them were active in at least one assay; those are over-represented in the sample as a whole. Active and inactive are the calls of the source. How the source made its calls: active means growth percent below 10; inactive means the rest.
Value kind: growth

# Compound, Measured target, Result
data = [
    ("Cn1c2c(Cl)c(Cl)ccc2c2cc(N)[nH]c(=O)c21", "OVCAR-3 ovarian", "86.2% (inactive)"),
    ("COc1ccc(CC(C)=C(c2ccc(OCCN(C)C)cc2)c2ccc(OCCN(C)C)cc2)cc1", "OVCAR-3 ovarian", "83.8% (inactive)"),
    ("COc1cc(OC)cc(C2C3=C(COC3=O)Nc3cc(OC)ccc32)c1 (stereo not given)", "OVCAR-3 ovarian", "-50% (active)"),
    ("Cc1ccc2[nH]c(=S)n(-c3ccc(S(=O)(=O)Nc4ccc(Cl)nn4)cc3)c(=O)c2c1", "OVCAR-3 ovarian", "108% (inactive)"),
    ("CC(N)C(=O)NNc1n[nH]c(=S)n1N (stereo not given)", "OVCAR-3 ovarian", "97.6% (inactive)"),
]

----------
Test system: A549/ATCC NSCLC
Test: NCI-60 one-dose screen, 48 h (100 = growth as untreated, 0 = no growth, -100 = all killed)
Particulars: 10 µM unless noted
Compounds without any hit were thinned out: in the full panel of roughly 83,000, 20% have a hit.
Measured growth accompanies every entry in the list below.

# Compound, Unit tag, growth
measured = [
    ("Clc1cc(Cl)cc(N2N=C(c3cccc(Nc4ccncc4)c3)CC2c2ccc(Br)cc2)c1 (configuration not stated)", "%", 19.1),
    ("Nc1ccccc1NC(=O)c1ccc(CN2CCC/C(=C\\c3cccc(Cl)c3)C2=O)cc1", "%", 33),
    ("Clc1ccc2c(c1)c(-c1ccccc1)nc1nncn12", "%", 106),
    ("COc1ccc(Cc2nc3cc(OC)c(OC)cc3c(=O)[nH]2)cc1", "%", -5.67),
    ("Nc1nc(SN=Nc2ccc(S(N)(=O)=O)cc2)c2[nH]cnc2n1", "%", 24.1),
    ("CCC(C)N(CCNc1cc(OC)cc2cccnc12)CCC(C)C (configuration not stated)", "%", 61.6),
    ("CC(N)C(=O)NNc1n[nH]c(=S)n1N (configuration not stated)", "%", 102),
    ("O=c1[nH]nc(-c2ccc(Cl)cc2)cc1Cc1cccc([N+](=O)[O-])c1", "%", 81.9),
    ("CNC(=O)c1c(NC(=O)c2ccc(C(C)C)cc2)sc2c(CN(C)C)c(O)ccc12", "%", 115),
    ("COc1cc2nc(-c3ccc(C(F)(F)F)cc3)cc(OCCCN3CCC(O)CC3)c2cc1OC", "%", 27.7),
    ("COc1ccc(-n2cc(-c3cc(OC)c(OC)c(OC)c3)n(C(C)=O)c2=O)cc1", "%", 99.8),
    ("Nc1nnc(C(=O)c2cnc3n(c2=O)CCCCC3)s1", "%", 102),
    ("COc1ccc(C(O)c2cc3c(N)c(C(=O)Nc4cccc(OC)c4)sc3nc2C)cc1 (configuration not stated)", "%", 9.44),
    ("COc1ccc(C2CC(c3cccc(Nc4ccncc4)c3)=NN2c2cc(Cl)cc(Cl)c2)cc1 (configuration not stated)", "%", 26.5),
    ("Cc1[nH]n(-c2cccc(Cl)c2)c(=O)c1/C=C1\\C=Nc2ccc(Br)cc21", "%", -8.71),
    ("Cc1ccc(C2CC(c3cccc(Nc4ccncc4)c3)=NN2c2ccccc2)cc1 (configuration not stated)", "%", -60.2),
    ("CC(=O)[C@@H]1CC[C@]2(C(N)=O)CC[C@]3(C)[C@H](CC[C@@H]4[C@@]5(C)CCC(=O)C(C)(C)[C@@H]5CC[C@]43C)[C@@H]12", "%", 96.3),
    ("COc1cc(OC)c(/C=C/C(=O)c2ccc(Nc3ncnc4ccccc34)cc2)c(OC)c1", "%", 12.2),
    ("CCCCc1ccc(Nc2nnc(SCC(=O)NC(=O)NCC)s2)cc1", "%", 109),
    ("Clc1cc(Cl)cc(N2N=C(c3cccc(Nc4ccncc4)c3)CC2c2ccc3c(c2)OCO3)c1 (configuration not stated)", "%", 15.2),
    ("CSc1nnc2c(=O)n(C)c(=O)n(C)c2n1", "%", 104),
    ("CC(C)CCSc1nc(NNC(N)=O)c(C#N)c(-c2ccccc2)n1", "%", 106),
    ("O=C(Nc1cccc(C2=NCCN2)c1)c1ccc(OCCCOc2ccc(C(=O)Nc3cccc(C4=NCCN4)c3)cc2)cc1", "%", -55.3),
    ("OC(c1ccccc1)c1ccccn1 (configuration not stated)", "%", 77.1),
    ("CCC1(CC)NC(=O)c2c(c3ccc(Cl)c(Cl)c3n2C)C1C#N (configuration not stated)", "%", 88.6),
    ("O=C(/C=C/c1ccc[nH]1)c1ccc(-n2ccc(C(F)(F)F)n2)cc1", "%", 50.6),
    ("CCN1C(=O)/C(=c2\\sc3n(c2=O)NC2C(N=3)N(CC)C(=O)N2CC)c2ccccc21 (configuration not stated)", "%", 38.9),
    ("O=C(CSc1nc2sc3c(c2c(=O)n1Cc1ccccc1)CCCC3)N1CCN(c2ccccc2)CC1", "%", 73),
    ("CN(C)Cc1c(-c2ccccc2)[nH]c2ccccc12", "%", 80.3),
    ("COc1ccc(NS(=O)(=O)c2ccc(C)cc2)c([N+](=O)[O-])c1", "%", 99.7),
    ("Cc1n[nH]c(C)c1-c1c(C)n[nH]c1C", "%", 11.9),
    ("NC(=O)c1ncn(C2OC(CO)C(O)C2O)n1 (configuration not stated)", "%", 96.3),
    ("NNC(=O)/C(=C\\c1ccc([N+](=O)[O-])cc1)CC(=O)c1ccc(Cl)c(Cl)c1", "%", 78.9),
    ("ClCC1(Cn2cnc3c(Cl)nc(Cl)nc32)COC1", "%", 57.5),
    ("c1ccc2c(-c3c4ccsc4cc4[nH]c5ccccc5c34)c[nH]c2c1", "%", 39.2),
    ("O=C1Nc2c(ccc(Cl)c2Cl)/C1=C/c1ccc(F)cc1", "%", 41.1),
    ("Cc1ccc(O)c(C(=O)O)c1", "%", 103),
    ("COc1ccc(-c2ncc(-c3ccccc3)[nH]2)cc1OC", "%", 110),
    ("Cc1ccc(C(c2c(O)c3cc(Br)ccc3[nH]c2=O)c2c(O)c3cc(Br)ccc3[nH]c2=O)cc1", "%", 89.5),
    ("CC(C)(C)OC(=O)N1C/C(=C\\c2ccoc2)C(=O)/C(=C/c2ccoc2)C1", "%", 102),
    ("CN1CCN(c2c(F)cc(NC3=C(Cl)C(=O)c4ncccc4C3=O)cc2F)CC1", "%", 109),
    ("O=C(CCN1CCCC1)Nc1ccc2c(NCc3ccc(F)cc3)c3ccccc3nc2c1", "%", -37.6),
]
